The reported numbers originate from PubChem BioAssay (NCI).

Reported growth inhibition values are given for each entry in this list.
assay: NCI Yeast Anticancer Drug Screen. Data for the rad14 strain (AID 159);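 further: 0% = growth of vehicle-treated control cultures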; conditions: S. cerevisiae rad14 strain growth inhibition; at 100.0 µM; hits give high values
The panel holds about 79,000 compounds, 15% with a hit somewhere; the sample as a whole holds those more often.

- molecule: "NCCNCCNc1ccc(NCCNCCN)c2c1C(=O)c1c(O)ccc(O)c1C2=O"
  growth inhibition [%]: 15
- molecule: "N#CC(=Nc1ccccc1F)Nc1ccccc1F"
  growth inhibition [%]: 12
- molecule: "CCOC1(c2cccc([N+](=O)[O-])c2)c2ccccc2Oc2ccccc21"
  growth inhibition [%]: 10
- molecule: "COc1c(O)c(C=O)c(Br)c(C=O)c1O"
  growth inhibition [%]: 83
- molecule: "COc1cc([C@@H]2c3cc4c(cc3[C@@H](Nc3ccc(NC(=O)c5cc([N+](=O)[O-])cn5C)cc3)[C@H]3COC(=O)[C@H]23)OCO4)cc(OC)c1O"
  growth inhibition [%]: 59
- molecule: "Cc1ccc(NC(=O)/C(CC2N=c3c(ccc4c(O)c5ccccc5c(O)c34)=NC2O)=N/NC(C)(C)C)cc1 (stereo unspecified)"
  growth inhibition [%]: 1
- molecule: "Cc1ccccc1N=C(NO)c1ccccc1"
  growth inhibition [%]: 96
- molecule: "CC(=O)OC1CC2C(C)(C)C(=O)C=C[C@]2(C)C2CCC3(C)C(=CCC3[C@H](CO)C[C@H](O)C(=O)C(C)(C)O)[C@]12C (stereo partly specified)"
  growth inhibition [%]: 77
- molecule: "COc1cc(O)c2c(c1O)C(=O)c1cc(C)ncc1C2=O"
  growth inhibition [%]: 94
- molecule: "COc1cccc2c1C(=O)c1c(O)c3c(c(O)c1C2=O)CC(O)(C(O)CO)CC3OC1CC(N2CCOCC2)C(O)C(C)O1 (stereo unspecified)"
  growth inhibition [%]: 97
- molecule: "O=c1ccc2ccccc2c2ccccc12"
  growth inhibition [%]: 97
- molecule: "CCCCCOC(=S)SC(=O)OCC"
  growth inhibition [%]: 92
- molecule: "CCN(CC)CCOc1cc(C)c2cc(Cc3ccccc3)ccc2n1"
  growth inhibition [%]: 99
- molecule: "CCCC(=O)Oc1c(C)cc([N+](=O)[O-])cc1[N+](=O)[O-]"
  growth inhibition [%]: 99
- molecule: "CCOC(=O)COc1c(OC)cc(C2C3=C(COC3=O)Oc3cc4c(cc32)OCO4)cc1OC (stereo unspecified)"
  growth inhibition [%]: 15
- molecule: "CC(=O)OC1CCC2(C)C(=CC(C3C=C4CC(OC(C)=O)CCC4(C)C4=C3C3CC5OC6(CCC(C)CO6)C(C)C5C3(C)CC4)C3=C2CCC2(C)C3CC3OC4(CCC(C)CO4)C(C)C32)C1 (stereo unspecified)"
  growth inhibition [%]: 84
- molecule: "CC[N+](CC)(CC)c1ccccc1"
  growth inhibition [%]: -25
- molecule: "C[Si](C)(C)/C=C/CCNC(C#N)c1ccccc1 (stereo unspecified)"
  growth inhibition [%]: 94
- molecule: "CC(=O)Nc1ccc(/C=C/[N+](=O)[O-])cc1"
  growth inhibition [%]: 99
- molecule: "Cc1cc(NCCCCCCCCNc2cc(C)nc3cc(N)ccc23)c2ccc(N)cc2n1"
  growth inhibition [%]: 96
- molecule: "CSc1nnc(SC)nn1"
  growth inhibition [%]: 98

====

Reported growth inhibition values are given for each entry in this list.
test: NCI Yeast Anticancer Drug Screen. Data for the mgt1 strain (AID 153); details: S. cerevisiae mgt1 mutant growth inhibition; at 1.2 µM; hits give high values
Compounds without any hit were thinned out: in the full panel of roughly 79,000, 15% have a hit.
recorded metric: growth inhibition (%)

- compound: "O=C1c2cccnc2C(=O)C2C3C=CC(C3)C12 (stereo unspecified)"
  reading: 12
- compound: "O=[N+]([O-])c1ccc(N/N=C/Cc2ccccc2)c([N+](=O)[O-])c1"
  reading: -2
- compound: "c1ccc2cc(NCNc3ccc4ccccc4c3)ccc2c1"
  reading: 1
- compound: "Cc1nc2ccc(N=NN(C)C)cc2[nH]1"
  reading: 2
- compound: "CN(C)[C@@H]1C(=O)C(C(N)=O)=C(O)[C@@]2(O)C(=O)C3=C(O)c4c(O)cccc4C[C@H]3C[C@@H]12"
  reading: 0
- compound: "O=C(/C=C(/c1ccccc1)N1CCCCC1)c1ccccc1"
  reading: -3
- compound: "O=C1c2ccccc2C(=O)c2cc(CCl)ccc21"
  reading: -1
- compound: "CC(NCCN(C)C)C1CCC2C3CCc4cc(O)ccc4C3CCC12C (stereo unspecified)"
  reading: 0
- compound: "O=C1Nc2ccc(Br)cc2C1=Nc1ccc2c(c1)OCO2"
  reading: -9
- compound: "OCC(CO)C(c1cccc2ccccc12)c1cccc2ccccc12"
  reading: -1
- compound: "C#CCN(Cc1ccc2nc(N)[nH]c(=O)c2c1)c1ccc(C(=O)NC(CCC(=O)O)C(=O)O)cc1 (stereo unspecified)"
  reading: -29

====

experiment: NCI Yeast Anticancer Drug Screen. Data for the sgs1 strain (AID 173);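 further: 0% = growth of vehicle-only control cultures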; settings: S. cerevisiae sgs1 mutant, at 11.0 µM, hits give high values
The panel holds about 79,000 compounds, 15% with a hit somewhere; the sample as a whole holds those more often.

- compound: "Cc1c2cc[n+](Cc3ccc(I)cc3)cc2c(C)c2c1[nH]c1ccccc12"
  result unit: "%"
  growth inhibition: 96
- compound: "Cc1ccc2c(c1)C1(SC(C)C(=O)N1c1ccc(Cl)cc1)C(=O)N2 (stereo unspecified)"
  result unit: "%"
  growth inhibition: 25
- compound: "S=C1SCN(C2CCCCC2)CN1C1CCCCC1"
  result unit: "%"
  growth inhibition: -17
- compound: "O=C1CSC(c2cccc(Cl)c2)N1c1ccc(-c2ccc(-n3c(-c4ccccc4)nc4ccccc4c3=O)cc2)cc1 (stereo unspecified)"
  result unit: "%"
  growth inhibition: 10
- compound: "O=C(/C=C/c1cc(Cl)cc(Cl)c1O)c1cccc(O)c1"
  result unit: "%"
  growth inhibition: 78
- compound: "O=C(O)c1cc2ccc(Cl)cc2c(O)c1C1=CCCCC1"
  result unit: "%"
  growth inhibition: 39

====

Reported growth inhibition values are given for each entry in this list.
assay: NCI Yeast Anticancer Drug Screen. Data for the rad14 strain (AID 159);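 further: 0% = growth of vehicle-treated control cultures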; details: S. cerevisiae rad14 strain growth inhibition; at 11.0 µM; hits give high values
Compounds without any hit were thinned out: in the full panel of roughly 79,000, 15% have a hit.
recorded metric: growth inhibition (%)

- compound: "Cc1c(C)c(C)c(CSC(=N)N)c(C)c1C"
  recorded metric: "growth inhibition"
  reading: -12
- compound: "CN(C)C=NC1CCC(C(C)(C)C)CC1 (stereo unspecified)"
  recorded metric: "growth inhibition"
  reading: 75
- compound: "CC1=NOC(=O)/C1=C/c1ccc2c(c1)OCO2"
  recorded metric: "growth inhibition"
  reading: 7
- compound: "CCOC(=O)c1[nH]n(-c2ccccc2)c(=O)c1C=NC(=S)C(N)=S"
  recorded metric: "growth inhibition"
  reading: -11
- compound: "COc1ccc2c(c1)n([O-])c1ccccc1[n+]2=O"
  recorded metric: "growth inhibition"
  reading: 25
- compound: "CC(C)OC(=O)Nc1ccc2nc(-c3cscn3)[nH]c2c1"
  recorded metric: "growth inhibition"
  reading: -4

====

assay: NCI Yeast Anticancer Drug Screen. Data for the mgt1 strain (AID 153); details: S. cerevisiae mgt1 mutant growth inhibition; at 3.7 µM; hits give high values
Compounds without any hit were thinned out: in the full panel of roughly 79,000, 15% have a hit.
recorded metric: growth inhibition (%)

- molecule: "C=C(Cl)COC(=O)Nc1cccc(Cl)c1"
  result unit: "%"
  reading: -6
- molecule: "CCn1c(O)c(C=Nc2ccccc2)s/c1=N/Nc1nc(-c2ccccc2)cs1"
  result unit: "%"
  reading: 10
- molecule: "CC(/C=C/c1ccccc1)=N\\NC(N)=S"
  result unit: "%"
  reading: 13
- molecule: "CC1SC2(C(=O)Nc3ccc(Cl)cc32)N(c2ccc(Cl)cc2)C1=O (configuration not stated)"
  result unit: "%"
  reading: -4
- molecule: "COc1cc(/C=C2\\NC(=O)N(/C=C3\\C(=O)Oc4ccccc4C3=O)C2=O)ccc1O"
  result unit: "%"
  reading: -3
- molecule: "COc1ccc(C(=O)Oc2ccccc2Br)cc1"
  result unit: "%"
  reading: -5
- molecule: "O=c1ssc(=Nc2ccccc2)n1-c1ccccc1"
  result unit: "%"
  reading: 2
- molecule: "CN(C)C=NC1CCC(C(C)(C)C)CC1 (configuration not stated)"
  result unit: "%"
  reading: -1
- molecule: "c1ccc2c(c1)sc1c3cnccc3ccc21"
  result unit: "%"
  reading: -1
- molecule: "N/C(=N/N=C/c1cc(Br)cc(Br)c1O)NO"
  result unit: "%"
  reading: -27
- molecule: "CNC(=O)OCc1c(COC(=O)NC)c(-c2ccc(Cl)cc2)n2c1CCC2"
  result unit: "%"
  reading: -55
- molecule: "CCCCCCC(O)CNCc1ccnc2ccc(OC)cc12 (configuration not stated)"
  result unit: "%"
  reading: 4
